- target under test: ferroportin (Fpn) (Mus musculus)
- Construct: host or cells: J774 mouse macrophage cell line, Fe(III)-NTA induced
- Sequence (Q9JHI9 1-570): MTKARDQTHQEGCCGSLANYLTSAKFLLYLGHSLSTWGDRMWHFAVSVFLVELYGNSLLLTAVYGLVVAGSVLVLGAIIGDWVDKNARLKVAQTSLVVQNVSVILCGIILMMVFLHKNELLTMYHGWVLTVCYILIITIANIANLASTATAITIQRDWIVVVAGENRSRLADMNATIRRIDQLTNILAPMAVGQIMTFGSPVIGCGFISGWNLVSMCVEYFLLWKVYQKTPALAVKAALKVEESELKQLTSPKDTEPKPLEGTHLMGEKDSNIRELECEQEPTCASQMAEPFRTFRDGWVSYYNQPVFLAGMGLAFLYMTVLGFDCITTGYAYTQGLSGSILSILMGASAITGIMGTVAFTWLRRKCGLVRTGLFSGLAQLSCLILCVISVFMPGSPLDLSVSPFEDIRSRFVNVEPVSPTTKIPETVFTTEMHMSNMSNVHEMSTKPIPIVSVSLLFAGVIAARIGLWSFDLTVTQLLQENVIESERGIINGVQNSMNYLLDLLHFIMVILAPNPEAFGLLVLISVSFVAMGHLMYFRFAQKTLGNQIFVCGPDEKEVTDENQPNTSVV
- measurement protocol: Hepcidin Internalization Assay (J774)
- Type: cell-based
- experimental conditions: average of multiple measurements; inhibition of TMR-hepcidin (25 nM) internalization into J774 cells; read-out: J774 IC50
Measured IC50 by item
// units = nM; emit number, no label

Please review the entries below; each comes with its answer.
                                   molecule  units  assay_result
0  Cc1sc(CCNCCc2nc3ccccc3[nH]2)nc1C(=O)NCc1ncccc1F     nM           100
1  O=C(NCc1ncc(F)cc1Cl)c1csc(CCNCc2nc3ccccc3[nH]2)n1     nM            58
2  O=C(NCc1ccccn1)c1csc(CCNCCc2nc3ccccc3[nH]2)n1     nM            10

Per the records, this molecule ( O=C(NCc1ccccc1N1CCOCC1)c1csc(CCNCc2nc3ccccc3[nH]2)n1 ) has IC50 equal to 610

Per the records, this molecule ( O=C(NCc1ncccc1F)c1csc(CCCNCc2nc3ccccc3[nH]2)n1 ) has IC50 equal to 377

Per the records, this molecule ( O=C(NCc1ncccc1F)c1csc(CCNCc2nc3c(F)cccc3[nH]2)n1 ) has IC50 equal to 145

Per the records, this molecule ( O=C(NCc1ccccn1)c1csc(CCNCc2nc3ccccc3[nH]2)n1 ) has IC50 equal to 80

Per the records, this molecule ( CN(C)C(=O)c1csc(CCNCc2nc3ccccc3[nH]2)n1 ) has IC50 equal to 17200

Per the records, this molecule ( O=C(NCc1ccccc1)c1csc(CCNCc2cc3ccccc3[nH]2)n1 ) has IC50 equal to 2800

Per the records, this molecule ( O=C(NCc1ncccc1F)c1ncn(CCNCCc2nc3ccccc3[nH]2)n1 ) has IC50 equal to 135

Per the records, this molecule ( O=C(NCc1ncccc1F)c1cncc(C2CN(CCc3nc4ccccc4[nH]3)C2)c1 ) has IC50 equal to 81

Per the records, this molecule ( O=C(NC1CCc2cccnc21)c1cnn(C2CN(CCc3nc4ccccc4[nH]3)C2)c1 (centres unmarked) ) has IC50 equal to 330

Per the records, this molecule ( CCCCN(CCc1nc2ccccc2[nH]1)CCc1nc(C(=O)NCc2ncccc2F)cs1 ) has IC50 equal to 717

Per the records, this molecule ( N#Cc1ccccc1CNC(=O)c1csc(CCNCc2nc3ccccc3[nH]2)n1 ) has IC50 equal to 240

Per the records, this molecule ( O=C(NCc1ncccc1F)c1cncc(CCNCCc2nc3cc(F)ccc3[nH]2)c1 ) has IC50 equal to 188

Per the records, this molecule ( Cc1ccnc(CNC(=O)c2csc(CCNCc3nc4ccccc4[nH]3)n2)c1 ) has IC50 equal to 1520

Per the records, this molecule ( NC(=O)c1csc(CCNCc2nc3ccccc3[nH]2)n1 ) has IC50 equal to 15800

Per the records, this molecule ( Cc1cnc(CNC(=O)c2nc(CCNCc3nc4ccccc4[nH]3)sc2Cl)nc1 ) has IC50 equal to 3640

Per the records, this molecule ( O=C(NCc1ncccc1F)c1csc(CCN(CCc2nc3ccccc3[nH]2)CC2CC2)n1 ) has IC50 equal to 2080
